Tested on: Plasmodium falciparum
TEST METHOD NOTES: Screen against P. falciparum Asexual Blood Stage (ABS), at 5uM
Type: functional, Dd2
TEST PARAMETERS: tested at 5 uM
Out of some 65,000 compounds screened, about 2,100 (3.2%) showed an effect of 50% or more. The median lay at about -52%. Many of the other results were omitted from the sample, so strong results are more common in it than they were.
# strict inequality: INHIBITION < 10% yields TRUE, everything else yields FALSE

MOLECULE	ASSIGNED LABEL
CNc1cc(C)nc(NC2CCCN(C3Cc4ccccc4C3)C2)n1 (stereo unspecified)	FALSE
Cc1cc(C)nc(N2CCCC2c2cccnc2)n1 (stereo unspecified)	TRUE
CN(C(=O)Cc1ccn(C)c1)C1CCCN(C2Cc3ccccc3C2)C1 (stereo unspecified)	TRUE

[in] Record CCOC(=O)[C@@H]1[C@@H](c2ccccc2)CN2CCN(S(C)(=O)=O)C[C@H]12 : is its INHIBITION strictly below 10%?
[out] TRUE

[in] Record CNc1nc(C)cc(NC2CCCN(C3Cc4ccccc4C3)C2)n1 (stereo unspecified) : is its INHIBITION strictly below 10%?
[out] FALSE
